Tested on: U-251
Assay: Antitumor activity against human U251 cells assessed as cell growth inhibition at 10 uM incubated for 48 hrs by sulforhodamine B assay
Type: functional
Settings: read-out: GI
Readout Kind: inhibition of growth at 10 µM

[[record]]
smiles_string = "CCN(CC)c1ccc(-c2nc3c4ccccc4c4ccccc4c3o2)c(O)c1"
recorded_value = "15.6%"

[[record]]
smiles_string = "c1cc2ccc3ccc(-c4nc5c6ccccc6c6ccccc6c5[nH]4)c4ccc(c1)c2c34"
recorded_value = "< 10%"

[[record]]
smiles_string = "O=Cc1ccc(-c2nc3c([nH]2)-c2cccc4cccc-3c24)cc1"
recorded_value = "< 10%"


====

System: SNB-75
Assay: Antitumor activity against human SNB-75 cells assessed as cell growth inhibition at 10 uM incubated for 48 hrs by sulforhodamine B assay
Assay type: functional
Details: read-out: GI
Readout Kind: inhibition of growth at 10 µM

[[record]]
smiles_string = "O=Cc1ccc(-c2nc3c([nH]2)-c2cccc4cccc-3c24)cc1"
recorded_value = "< 10%"

[[record]]
smiles_string = "c1cc2ccc3ccc(-c4nc5c6ccccc6c6ccccc6c5[nH]4)c4ccc(c1)c2c34"
recorded_value = "< 10%"

[[record]]
smiles_string = "CCN(CC)c1ccc(-c2nc3c4ccccc4c4ccccc4c3[nH]2)c(O)c1"
recorded_value = "< 10%"

[[record]]
smiles_string = "O=C1NC(=O)/C(=C/c2ccc(-c3nc4c5ccccc5c5ccccc5c4[nH]3)cc2)S1"
recorded_value = "< 10%"

[[record]]
smiles_string = "CCN(CC)c1ccc(-c2nc3c4ccccc4c4ccccc4c3o2)c(O)c1"
recorded_value = "< 10%"

